Documented growth across a set of compounds
- System: UACC-62 melanoma
- experiment-summary: NCI-60 one-dose screen, 48 h (100 = growth as untreated, 0 = no growth, -100 = all killed)
- setup-conditions: 10 µM unless noted
Compounds without any hit were thinned out: in the full panel of roughly 83,000, 20% have a hit.

[
  {
    "compound": "C=C1CC2(OC1=O)C(=O)N(CCCN1C(=O)C3(CC(=C)C(=O)O3)c3ccccc31)c1ccccc12 (stereo not given)",
    "growth (%)": 23.2
  },
  {
    "compound": "CN(C)c1oc(C2OC2c2ccccc2)nc1C#N (stereo not given)",
    "growth (%)": 76.1
  },
  {
    "compound": "OB(O)c1cccc(-c2nc3ccc4[nH]ncc4c3c3c2CCCC3)c1F",
    "growth (%)": 27.4
  },
  {
    "compound": "CC[N+](CC)=c1cc2oc3cc(N(C)C)ccc3nc-2cc1C",
    "growth (%)": 62.7
  },
  {
    "compound": "CC(=O)Nc1ccc(/C=C/C(=O)c2ccccc2)cc1",
    "growth (%)": 96.6
  },
  {
    "compound": "O=S(=O)(NCCNc1nccc(-c2c(-c3ccc(O)cc3)nc3sccn23)n1)c1cccc2ccccc12",
    "growth (%)": 106
  },
  {
    "compound": "Cn1c(=O)cc(NC(=O)CN2CCN(c3cc4c(cc3F)c(=O)c(C(=O)O)cn4C3CC3)CC2)[nH]c1=O",
    "growth (%)": 96.3
  },
  {
    "compound": "COc1cccc(/C=C/C(=O)Nc2cc(OC)c3c(c2)OCO3)c1",
    "growth (%)": 92
  },
  {
    "compound": "Cc1cc(C2=NNC(=O)Cc3cc4c(cc32)OCCO4)cc(C)c1N",
    "growth (%)": 44.1
  },
  {
    "compound": "O=C1c2ccccc2-c2ccccc2C1(Cl)Cl",
    "growth (%)": -83.4
  }
]

----------
- Tested on: EKVX NSCLC
- experiment-summary: NCI-60 one-dose screen, 48 h
- setup-conditions: 10 µM unless noted
The panel holds about 83,000 compounds, 20% with a hit somewhere; the sample as a whole holds those more often. Calls of active or inactive are those of the source. The calls were made as follows: active = growth percent below 10; inactive = the rest.
Possible outcomes: yes for active, no for inactive

[
  {
    "compound": "C/C=C(\\C)C(C(=O)NC1CCCCC1)N(C(=O)C1CCc2cc(F)ccc2O1)c1ccc(Cl)cc1 (stereo not drawn)",
    "assigned-class": "no"
  },
  {
    "compound": "COc1ccc2c(c1)[nH]c(=O)c1c3cc(OC)ccc3cn21",
    "assigned-class": "no"
  },
  {
    "compound": "CCN(CC)CCCC(C)Nc1c2ccc(Cl)cc2nc2cc(OC)c(OC)cc12 (stereo not drawn)",
    "assigned-class": "no"
  },
  {
    "compound": "S=c1[nH]nc(-c2cc3ccc2CCc2ccc(cc2)CC3)n1-c1ccccc1",
    "assigned-class": "no"
  },
  {
    "compound": "CC(C)(C)n1cc(-c2ccnc(NCCCNS(=O)(=O)c3ccc(Br)cc3)c2)c(-c2cccc(O)c2)n1",
    "assigned-class": "no"
  },
  {
    "compound": "O=C(NCCNc1nccc(-n2ccc3cccnc32)n1)c1ccc(C(F)(F)F)cc1",
    "assigned-class": "no"
  },
  {
    "compound": "CC1CCC(C)N(C)C1 (stereo not drawn)",
    "assigned-class": "no"
  },
  {
    "compound": "C=C1CCC2C(C)(CO)C(O)CCC2(C)C1C/C=C1/C(=O)OCC1O/C=C/c1ccccc1 (stereo not drawn)",
    "assigned-class": "no"
  },
  {
    "compound": "Brc1cccc(-c2cc(-c3ccc4nccnc4c3)[nH]n2)c1",
    "assigned-class": "no"
  },
  {
    "compound": "Cc1ccc(N2CCN(C(C)C(N)=O)CC2)cc1 (stereo not drawn)",
    "assigned-class": "no"
  },
  {
    "compound": "COc1ccc(-c2[nH]nc(N)c2-c2cc(OC)c3c(c2)OCO3)cc1",
    "assigned-class": "no"
  },
  {
    "compound": "Cc1cc(N/N=C/c2nc(-c3ccc(Br)cc3)oc2C)c2cc(Cl)ccc2n1",
    "assigned-class": "no"
  },
  {
    "compound": "NC(=S)N/N=C(/CCN1CCCC1)CC(C1=C(O)C2=CCCCC2OC1=O)c1ccccc1 (stereo not drawn)",
    "assigned-class": "no"
  },
  {
    "compound": "Cc1cc(N)n(S(=O)(=O)c2oc(-c3ccccc3)nc2C#N)n1",
    "assigned-class": "no"
  },
  {
    "compound": "O=C(Nc1ccc2c(c1)OCO2)C(=O)c1c[nH]c2cc(F)ccc12",
    "assigned-class": "no"
  },
  {
    "compound": "CCN(CC)CCC(CNc1ccnc2cc(Cl)ccc12)c1ccccc1 (stereo not drawn)",
    "assigned-class": "no"
  },
  {
    "compound": "c1ccc(Nc2nc(Nc3ccccc3)nc(Nc3ccccc3)n2)cc1",
    "assigned-class": "no"
  },
  {
    "compound": "CCNc1nc(S(=O)(=O)CC)nc2ccccc12",
    "assigned-class": "no"
  },
  {
    "compound": "C=C[C@@H]1C[C@H](O)Cc2ccccc2N1",
    "assigned-class": "no"
  },
  {
    "compound": "CN1C(=O)N(C)C2C1NN=c1s/c(=C\\C=C\\c3ccccc3)c(=O)n12 (stereo not drawn)",
    "assigned-class": "no"
  },
  {
    "compound": "NC(=O)CCCN1C/C(=C\\c2ccccc2)C(=O)c2ccccc21",
    "assigned-class": "no"
  },
  {
    "compound": "CCCCCCCCC(C)OC(=O)c1nn(C(C)=O)c2ccccc12 (stereo not drawn)",
    "assigned-class": "no"
  },
  {
    "compound": "CC(C)(C)n1cc(-c2ccnc(NCCNS(=O)(=O)c3ccc(C(F)(F)F)cc3)c2)c(-c2cccc(O)c2)n1",
    "assigned-class": "no"
  },
  {
    "compound": "COc1cccc(-c2nc3sccn3c2-c2ccnc(NCCCNS(=O)(=O)c3ccc(C(F)(F)F)cc3)c2)c1",
    "assigned-class": "no"
  },
  {
    "compound": "COc1cc(-c2ncn(/C=C\\C(=O)OC(C)C)n2)cc(C(F)(F)F)c1",
    "assigned-class": "no"
  },
  {
    "compound": "CCn1c2ccccc2c2cc(NC(=O)Nc3ccc([N+](=O)[O-])cc3C)ccc21",
    "assigned-class": "no"
  },
  {
    "compound": "CCN(CC)CCOC(=O)C(c1ccccc1)(c1ccccc1)C(C)C",
    "assigned-class": "no"
  },
  {
    "compound": "CN(C)c1cccc2c(S(=O)(=O)/N=C(\\N)Nc3nc4ccccc4s3)cccc12",
    "assigned-class": "no"
  },
  {
    "compound": "O=c1[nH]c(Nc2ccc(S(=O)(=O)O)cc2)nc2nc(Nc3ccc(NC(=S)Nc4ccccc4)cc3)nc(-c3ccc(O)cc3O)c12",
    "assigned-class": "no"
  },
  {
    "compound": "C/C(=N/NC(=S)Nc1ccccc1)c1nc2ccc(Cl)cc2[nH]1",
    "assigned-class": "yes"
  },
  {
    "compound": "COc1ccc(-c2c(-c3cc(OC)c4c(c3)OCO4)noc2N)cc1",
    "assigned-class": "no"
  },
  {
    "compound": "CCOC(=O)CN1/C(=N/c2sc3c(c2C(=O)OCC)CCN(C(=O)OCC)C3)SC(=O)/C1=C\\C(=O)OC",
    "assigned-class": "no"
  },
  {
    "compound": "O=C(CCl)N(C1CCCCC1)C1CCCCC1",
    "assigned-class": "no"
  },
  {
    "compound": "COc1cc(Nc2ncccc2C(=O)NCc2cn(Cc3cccc(Oc4ccccc4)c3)nn2)cc(OC)c1",
    "assigned-class": "no"
  },
  {
    "compound": "CC(C)OC(=O)N1CCOCC1",
    "assigned-class": "no"
  },
  {
    "compound": "CCCN=C1NC(=O)/C(=C/c2nc(-c3ccc(OC)cc3)n3ccccc23)S1",
    "assigned-class": "no"
  },
  {
    "compound": "COc1cc(C2C3=C(COC3=O)Nc3cc4c(cc32)OCO4)cc2c1OCO2 (stereo not drawn)",
    "assigned-class": "no"
  },
  {
    "compound": "C=C[C@@H]1C[C@@H]2Cc3c(C)cc(C)cc3N1O2",
    "assigned-class": "no"
  },
  {
    "compound": "FC(F)(F)c1cccc(-c2cn3c(ccc4ccccc43)n2)c1",
    "assigned-class": "no"
  },
  {
    "compound": "Oc1ccccc1/C=N/NC(=S)NC1CC2C=CC1C2 (stereo not drawn)",
    "assigned-class": "no"
  },
  {
    "compound": "Cc1ccc(S(=O)(=O)n2cc(C(=O)C(=O)Nc3ccncc3)c3ccccc32)cc1",
    "assigned-class": "no"
  },
  {
    "compound": "CC(C)(C)OC(=O)NC(CSCc1ccccc1)C(=O)ON1C(=O)CCC1=O (stereo not drawn)",
    "assigned-class": "no"
  },
  {
    "compound": "COc1ccc(C2NN=C3c4ccccc4CCC32)cc1 (stereo not drawn)",
    "assigned-class": "no"
  }
]
